Hi! I'm sharing some pIC50 results obtained with human HPK1 (Homo sapiens, UniProt Q92918).
Sequence (Q92918 whole entry): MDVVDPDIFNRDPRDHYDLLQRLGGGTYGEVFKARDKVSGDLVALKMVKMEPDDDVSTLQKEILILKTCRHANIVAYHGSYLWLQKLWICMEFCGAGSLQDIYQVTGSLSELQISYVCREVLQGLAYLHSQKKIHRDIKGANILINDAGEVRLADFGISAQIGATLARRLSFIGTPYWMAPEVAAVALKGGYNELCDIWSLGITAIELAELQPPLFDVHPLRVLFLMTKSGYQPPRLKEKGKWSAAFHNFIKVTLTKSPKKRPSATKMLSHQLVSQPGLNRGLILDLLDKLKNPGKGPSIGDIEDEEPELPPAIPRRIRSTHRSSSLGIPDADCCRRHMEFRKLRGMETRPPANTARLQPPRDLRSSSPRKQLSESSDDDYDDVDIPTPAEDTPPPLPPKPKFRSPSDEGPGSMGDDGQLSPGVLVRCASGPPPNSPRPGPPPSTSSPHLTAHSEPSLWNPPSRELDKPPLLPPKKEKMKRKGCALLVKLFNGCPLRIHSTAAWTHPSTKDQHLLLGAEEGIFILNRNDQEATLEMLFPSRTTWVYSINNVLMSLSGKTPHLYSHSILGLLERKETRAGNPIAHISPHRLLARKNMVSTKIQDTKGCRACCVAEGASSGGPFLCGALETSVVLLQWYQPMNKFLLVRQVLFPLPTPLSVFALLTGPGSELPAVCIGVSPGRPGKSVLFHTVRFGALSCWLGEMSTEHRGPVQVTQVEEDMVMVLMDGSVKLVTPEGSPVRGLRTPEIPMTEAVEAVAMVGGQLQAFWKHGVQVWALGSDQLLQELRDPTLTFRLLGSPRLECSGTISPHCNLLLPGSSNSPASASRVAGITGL
pIC50: −log10 of the molar value.
measurement type: pIC50

(1) CCN1CCC(n2cc(-c3c[nH]c4ncc(-c5ccc(OCC(C)(C)CNC(=O)c6ccc(Cl)c(N7CCC(=O)NC7=O)c6)nc5)nc34)cn2)CC1
(2) CCN1CCC(n2cc(-c3c[nH]c4ncc(-c5cnc(OC6CCN(C(=O)c7cccc(N8CCC(=O)NC8=O)c7)CC6)c(C)c5)nc34)cn2)CC1
(3) CCN1CCC(n2cc(-c3c[nH]c4ncc(-c5cnc(N6CCN(C(=O)c7ccc(N8CCC(=O)NC8=O)cc7)CC6)c(C)c5)nc34)cn2)CC1
q: Which order do the above compounds take when sorted by rising pIC50? Smallest first. I'd appreciate it if you listed the labels in the requested order.
a: 1, 3, 2

###

# study target: human HPK1 (Homo sapiens)
# test name: HPK1 protein degradation assay (WB) in RAMOS cell line
# Format: cell-based
# Set-up: The RAMOS cell line was selected as the degradation cell line; endogenous in cells; host or cells: RAMOS
# condition parameters: RAMOS cells, 16 h, Western blot
measurement type: Dmax (%)

>  <compound>
CCc1c[nH]c2ncc(-c3ccc(N4CCC(CC5CCN(C(=O)c6ccc(Cl)c(N7CCC(=O)NC7=O)c6)CC5)CC4)nc3)nc12 [Compound C205]

>  <readout value>
83

$$$$
>  <compound>
O=C1CCC(c2cc(C(=O)N3CCC(CC4CCN(c5ccc(-c6cnc7[nH]cc(-c8cnn(CCO)c8)c7n6)cn5)CC4)CC3)ccc2Cl)C(=O)N1 (stereo not drawn) [Compound C209]

>  <readout value>
84

$$$$
>  <compound>
Cn1cc(-c2c[nH]c3ncc(-c4cnc(N5CCC(CC6CCN(C(=O)c7ccc(Cl)c(N8CCC(=O)NC8=O)c7)CC6)CC5)nc4)nc23)cn1 [Compound C203]

>  <readout value>
91.7

$$$$

###

pIC50: −log10 of the molar value.
Endpoint: pIC50. System: human HPK1 (Homo sapiens, UniProt Q92918). Items follow.
measurement type: pIC50

>  <compound>
CCN1CCC(n2cc(-c3c[nH]c4ncc(-c5ccc(N6CCN(CC7CCN(C(=O)c8ccc(Cl)c(N9CCC(=O)NC9=O)c8)CC7)CC6)nc5)nc34)cn2)CC1 [Compound C020]

>  <readout value>
8.26

$$$$

(a) CCN1CCC(n2cc(-c3c[nH]c4ncc(-c5ccc(N6CCN(C7CCC(NC(=O)c8ccc(Cl)c(N9CCC(=O)NC9=O)c8)CC7)CC6)c(C)c5)nc34)cn2)CC1 (centres unmarked) [Compound C021]
(b) CCN1CCC(n2cc(-c3c[nH]c4ncc(-c5ccc(OCCCNC(=O)c6ccc(Cl)c(N7CCC(=O)NC7=O)c6)c(C)c5)nc34)cn2)CC1 [Compound C039]
(c) CCN1CCC(n2cc(-c3c[nH]c4ncc(-c5cnc(OCC(=O)N6CCC(c7ccc(NC8CCC(=O)NC8=O)cc7)CC6)c(C)c5)nc34)cn2)CC1 (centres unmarked) [Compound C007]
(d) CCN1CCC(n2cc(-c3c[nH]c4ncc(-c5ccc(N6CCN(C7CC8(CCN(C(=O)c9ccc(Cl)c(N%10CCC(=O)NC%10=O)c9)CC8)C7)CC6)cc5)nc34)cn2)CC1 [Compound C030]
q: Provide the items ranked by increasing pIC50. Answer by listing the labels in the requested order.
a: c, b, a, d

###

UniProtKB Q92918 IC50 data
measurement type: IC50 (nM)

>  <compound>
CCN1CCC(n2cc(-c3c[nH]c4ncc(-c5ccc(OCCCNC(=O)c6cccc(N7CCC(=O)NC7=O)c6)c(C)c5)nc34)cn2)CC1 [Compound C042]

>  <unit tag>
nM

>  <IC50>
2.1

$$$$
>  <compound>
CCN1CCC(n2cc(-c3c[nH]c4ncc(-c5cnc(N6CCN(CC7CN(c8cccc9c8C(=O)N(C8CCC(=O)NC8=O)C9=O)C7)CC6)c(C)c5)nc34)cn2)CC1 (centres unmarked) [Compound C012]

>  <unit tag>
nM

>  <IC50>
1.9

$$$$

(P) CCN1CCC(n2cc(-c3c[nH]c4ncc(-c5cnc(N6CCN(CC7CN(C(=O)c8cccc(N9CCC(=O)NC9=O)c8)C7)CC6)c(C)c5)nc34)cn2)CC1 [Compound C011]
(Q) CCN1CCC(n2cc(-c3c[nH]c4ncc(-c5ccc(N6CCC(CC7CCN(C(=O)c8ccc(Cl)c(N9CCC(=O)NC9=O)c8)CC7)CC6)nc5)nc34)cn2)CC1 [Compound C024]
(R) CCN1CCC(n2cc(-c3c[nH]c4ncc(-c5ccc(OCCN6CCC(NC(=O)c7ccc(Cl)c(N8CCC(=O)NC8=O)c7)CC6)nc5)nc34)cn2)CC1 [Compound C023]
q: Ordering: ascending IC50. List the labels according to the requested ordering.
a: P, Q, R

###

# test name: Pharmacokinetics of single administration in mice
# Format: in vivo, Balb/c mice
# condition parameters: female, Balb/c, mouse, plasma, iv 2 mg/kg
measurement type: half-life (h)

>  <compound>
[2H]C([2H])([2H])n1cc(-c2c[nH]c3ncc(-c4ccc(N5CCC(CC6CCN(C(=O)c7ccc(Cl)c(N8CCC(=O)NC8=O)c7)CC6)CC5)nc4)nc23)cn1 [Compound C160]

>  <unit tag>
h

>  <half-life>
1.25

$$$$

(I) O=C1CCN(c2cc(C(=O)N3CCC(CC4CCN(c5ccc(-c6cnc7[nH]cc(-c8cnn(CC(F)F)c8)c7n6)cn5)CC4)CC3)ccc2Cl)C(=O)N1 [Compound C195]
(II) C/C(=C(Cl)\C=C/CC(=O)N1CCC(CC2CCN(c3ccc(-c4cnc5[nH]cc(-c6cnn(C)c6)c5n4)cn3)CC2)CC1)N1CCC(=O)NC1=O [Compound C110]
q: Kindly identify which of I and II has the larger recorded half-life value. Please indicate the selected item by its label.
a: I
(I: 2.41 h, II: 0.98 h)

###

# test name: Pharmacokinetics of single administration in mice
# Type: in vivo, Balb/c mice
# condition parameters: female, Balb/c, mouse, plasma, iv 2 mg/kg, read-out: AUC
measurement type: AUC (ng·h/mL)

Below, each entry is followed by its recorded AUC result.
>  <compound>
[2H]C([2H])([2H])n1cc(-c2c[nH]c3ncc(-c4ccc(N5CCC(CC6CCN(C(=O)c7ccc(Cl)c(N8CCC(=O)NC8=O)c7)CC6)CC5)nc4)nc23)cn1 [Compound C160]

>  <unit tag>
ng·h/mL

>  <AUC>
5330

$$$$
>  <compound>
O=C1CCN(c2cc(C(=O)N3CCC(CC4CCN(c5ccc(-c6cnc7[nH]cc(-c8cnn(C9CC9)c8)c7n6)cn5)CC4)CC3)ccc2Cl)C(=O)N1 [Compound C170]

>  <unit tag>
ng·h/mL

>  <AUC>
4830

$$$$
>  <compound>
COCCn1cc(-c2c[nH]c3ncc(-c4ccc(N5CCC(CC6CCN(C(=O)c7ccc(Cl)c(N8CCC(=O)NC8=O)c7)CC6)CC5)nc4)nc23)cn1 [Compound C201]

>  <unit tag>
ng·h/mL

>  <AUC>
5050

$$$$

(1) O=C1CCN(c2cc(C(=O)N3CCC(CC4CCN(c5ccc(-c6cnc7[nH]cc(-c8cnn(CC(F)F)c8)c7n6)cn5)CC4)CC3)ccc2Cl)C(=O)N1 [Compound C195]
(2) C/C(=C(Cl)\C=C/CC(=O)N1CCC(CC2CCN(c3ccc(-c4cnc5[nH]cc(-c6cnn(C)c6)c5n4)cn3)CC2)CC1)N1CCC(=O)NC1=O [Compound C110]
(3) CCn1cc(-c2c[nH]c3ncc(-c4ccc(N5CCC(CC6CCN(C(=O)c7ccc(Cl)c(N8CCC(=O)NC8=O)c7)CC6)CC5)nc4)nc23)cn1 [Compound C162]
q: Arrange items by their AUC values in increasing order. Output spec: labels arranged per the requested ranking.
a: 3, 2, 1
(3: 2640 ng·h/mL, 2: 4030 ng·h/mL, 1: 42500 ng·h/mL)

###

# study target: human HPK1 (Homo sapiens, UniProt Q92918)
# test name: HPK1 protein degradation assay (WB) in RAMOS cell line
# Assay type: cell-based
# Set-up: The RAMOS cell line was selected as the degradation cell line; endogenous in cells; host or cells: RAMOS
# condition parameters: RAMOS cells, 16 h, Western blot
measurement type: DC50 (nM)

>  <molecule>
CCc1c[nH]c2ncc(-c3ccc(N4CCC(CC5CCN(C(=O)c6ccc(Cl)c(N7CCC(=O)NC7=O)c6)CC5)CC4)nc3)nc12 [Compound C205]

>  <unit tag>
nM

>  <DC50>
89.9

$$$$

(a) O=C1CCN(c2cc(C(=O)N3CCC(CC4CCN(c5ccc(-c6cnc7[nH]cc(-c8cnn([C@@H]9CCOC9)c8)c7n6)cn5)CC4)CC3)ccc2Cl)C(=O)N1 [Compound C199]
(b) CC(C)(C#N)n1cc(-c2c[nH]c3ncc(-c4ccc(N5CCC(CC6CCN(C(=O)c7ccc(Cl)c(N8CCC(=O)NC8=O)c7)CC6)CC5)nc4)nc23)cn1 [Compound C181]
q: From the recorded data, which exceeds the other in DC50: a or b ? Return value: the label identifying the chosen record.
a: b

Data provenance: patent US20260116884A1
